assay: AUC (0 to infinity) in mouse at 20 mg/kg, po; type: ADME, organism-based; design: time infinity, dose 20 mg/kg, route oral; details: plasma
metricName: AUC(0-inf) (ng·h/mL)
Respond with the bare value in ng·h/mL.

Check out these entries, answers already filled in.
INSERT INTO results (smilesrepr, recordedmeasurement) VALUES
  ('Nc1ncc(-c2cnn([C@H]3CC[C@H](O)CC3)c2)c2cc(-c3cccc4nnsc34)oc12', 16000),
  ('Nc1ncc(-c2cnn([C@H]3CC[C@H](O)CC3)c2)c2cc(-c3cccc4cnsc34)oc12', 821),
  ('Nc1ncc(-c2cnn([C@H]3CC[C@H](O)CC3)c2)c2c(C(F)F)c(-c3cccc4nnsc34)oc12', 33700);

Now consider the entry below.
Entry `Nc1ncc(-c2cnn([C@H]3CC[C@H](O)CC3)c2)c2c(Cl)c(-c3cccc4nnsc34)oc12` has what AUC(0-inf)?
8770

----------
assay: Oral bioavailability in mouse at 100 mg/kg; type: ADME, organism-based; details: in vivo
metricName: bioavailability (%)
Respond with the bare value in %.

Entry `Nc1ncc(-c2cnn([C@H]3CC[C@H](O)CC3)c2)c2c(Cl)c(-c3cccc4nnsc34)oc12` has what bioavailability?
32

----------
Molecular target: Mitogen-activated protein kinase kinase kinase 7 (Homo sapiens)
Sequence (O43318 whole entry): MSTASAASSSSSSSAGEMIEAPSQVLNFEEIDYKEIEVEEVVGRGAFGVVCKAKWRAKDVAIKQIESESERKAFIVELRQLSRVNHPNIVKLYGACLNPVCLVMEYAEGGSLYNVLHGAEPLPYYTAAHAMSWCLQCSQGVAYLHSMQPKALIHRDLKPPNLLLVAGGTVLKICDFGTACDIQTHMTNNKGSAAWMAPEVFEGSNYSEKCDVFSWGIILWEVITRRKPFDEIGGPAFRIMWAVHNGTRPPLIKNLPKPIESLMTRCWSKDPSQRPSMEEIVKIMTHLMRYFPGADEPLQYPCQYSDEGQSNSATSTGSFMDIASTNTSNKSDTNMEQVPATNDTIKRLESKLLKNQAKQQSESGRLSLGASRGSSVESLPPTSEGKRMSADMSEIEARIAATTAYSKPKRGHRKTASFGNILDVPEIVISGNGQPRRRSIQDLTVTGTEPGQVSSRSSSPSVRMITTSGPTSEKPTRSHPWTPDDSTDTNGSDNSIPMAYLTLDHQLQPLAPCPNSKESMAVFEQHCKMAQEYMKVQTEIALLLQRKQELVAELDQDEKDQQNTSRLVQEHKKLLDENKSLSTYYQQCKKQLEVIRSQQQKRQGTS
Experiment: Inhibition of TAK1 in human HCT116 cells assessed as inhibition of TNF-alpha-stimulated JNK phosphorylation
Format: cell-based, HCT-116
// boundary case: IC50 equal to 2 µM maps to -1; strictly smaller maps to 1

Please let me know if `Cn1cc(-c2cnc(N)c3oc(-c4csc5cnccc45)cc23)c(C#N)n1` shows IC50 below 2 µM.
-1

Please let me know if `Cn1cc(-c2cnc(N)c3oc(-c4csc5cnccc45)cc23)cn1` shows IC50 below 2 µM.
1

----------
target: Mitogen-activated protein kinase kinase kinase 7 (Homo sapiens); test: Inhibition of TAK1 in human HCT116 cells assessed as inhibition of TNF-alpha-stimulated JNK phosphorylation; type: cell-based, HCT-116
metricName: pIC50
Schema: pIC50 number; meaning minus log10 of the concentration expressed in molar units.

INSERT INTO results (smilesrepr, metricname, recordedmeasurement) VALUES
  ('Cc1c(-c2cnc(N)c3oc(-c4csc5cnccc45)cc23)cnn1C', 'pIC50', 5.52),
  ('Cc1nn(C)cc1-c1cnc(N)c2oc(-c3csc4cnccc34)cc12', 'pIC50', 6.00),
  ('Nc1ncc(-c2cnn([C@H]3CC[C@H](O)CC3)c2)c2cc(-c3cccc4nnsc34)oc12', 'pIC50', 7.82);

Entry `COc1nn(C)cc1-c1cnc(N)c2oc(-c3csc4cnccc34)cc12` has what pIC50?
5.77

Entry `Nc1ncc(-c2cnn([C@H]3CC[C@H](O)CC3)c2)c2c(Cl)c(-c3cccc4nnsc34)oc12` has what pIC50?
7.74
